Test: physchem
Settings: pH 7.4, aqueous buffer, kinetic from dmso stock, Solubility (pH 7.4)
VALUE TYPE: solubility at 24 h

Request the reported solubility at 24 h associated with CCNC(=O)Nc1nc2cc(-c3cnc(N4CCC(CC)(C(=O)O)C4)nc3)cc(-c3ccccn3)c2s1 (centres unmarked)
≥ 800 µg/mL

Request the reported solubility at 24 h associated with CCNC(=O)Nc1nc2cc(-c3cnc(N4CCC(C(N)=O)(c5ccccc5)CC4)nc3)cc(-c3ccccn3)c2s1
6.25 µg/mL

Request the reported solubility at 24 h associated with CCNC(=O)Nc1nc2cc(-c3cnc(N4CCC(C)(C(=O)O)CC4)nc3)cc(/C=N/OC)c2s1
≥ 800 µg/mL

Request the reported solubility at 24 h associated with CCNC(=O)Nc1nc2cc(-c3cnc(N4CCC(C)(C(=O)O)CC4)nc3)cc(-c3nccc4occc34)c2s1
≥ 800 µg/mL

Request the reported solubility at 24 h associated with CCNC(=O)Nc1nc2cc(-c3cnc(N4CCCC4(C)C(=O)O)nc3)cc(-c3ccccn3)c2s1 (centres unmarked)
≥ 800 µg/mL

Request the reported solubility at 24 h associated with CCNC(=O)Nc1nc2cc(-c3cnc(N4CCC(C(=O)O)(S(C)(=O)=O)CC4)nc3)cc(-c3ccccn3)c2s1
≥ 800 µg/mL

Request the reported solubility at 24 h associated with CCCC1(C(=O)O)CCN(c2ncc(-c3cc(-c4ccccn4)c4sc(NC(=O)NCC)nc4c3)cn2)CC1
400 µg/mL

Request the reported solubility at 24 h associated with CCNC(=O)Nc1nc2cc(-c3cnc(N4CCC(C)(C(=O)O)CC4)nc3)cc(COCCOC)c2s1
≥ 800 µg/mL

Request the reported solubility at 24 h associated with CCNC(=O)Nc1nc2cc(-c3cnc(N4CCC(C)(C(=O)O)CC4)nc3)cc(C#CC3CCCC3)c2s1
≥ 800 µg/mL

Request the reported solubility at 24 h associated with CCNC(=O)Nc1nc2cc(-c3cnc(N4CCC(CC)(C(=O)O)CC4)nc3)cc(-c3ccccn3)c2s1
≥ 800 µg/mL

Request the reported solubility at 24 h associated with CCNC(=O)Nc1nc2cc(-c3cnc(N4CCC(C)(C(=O)O)CC4)nc3)cc(/C(C)=N/OCCOC)c2s1
≥ 800 µg/mL

Request the reported solubility at 24 h associated with CCNC(=O)Nc1nc2cc(-c3cnc(N4CCC(C)(C(=O)O)CC4)nc3)cc(-c3cnc(N4CCOCC4)s3)c2s1
≥ 800 µg/mL

Request the reported solubility at 24 h associated with CCNC(=O)Nc1nc2cc(-c3cnc(N4CCC(F)(C(=O)O)CC4)nc3)cc(-c3ccccn3)c2s1
400 µg/mL

Request the reported solubility at 24 h associated with CCNC(=O)Nc1nc2cc(-c3cnc(N4CCC(C)(C(=O)O)CC4)nc3)cc(-c3ccc(OC)c(OC)n3)c2s1
400 µg/mL

---

Experiment: physchem
Details: pH 9, aqueous buffer, kinetic from dmso stock, Max Solubility
VALUE TYPE: solubility at 24 h (mg/mL)
Output spec: scalar in mg/mL, unitless text.

Request the reported solubility at 24 h associated with CCNC(=O)Nc1nc2cc(-c3cnc(N4CCC(C)(C(=O)O)CC4)nc3)cc(-c3ccnc(OC)n3)c2s1
0.1

Request the reported solubility at 24 h associated with CCNC(=O)Nc1nc2cc(-c3cnc(N4CCC(C)(C(=O)O)CC4)nc3)cc(C#Cc3nnc(C)s3)c2s1
0.4
